# measured-on: LRRK2 G2019S enzyme (Homo sapiens (Human), UniProt Q5S007, G2019S)
# Sequence (Q5S007 whole entry G2019S): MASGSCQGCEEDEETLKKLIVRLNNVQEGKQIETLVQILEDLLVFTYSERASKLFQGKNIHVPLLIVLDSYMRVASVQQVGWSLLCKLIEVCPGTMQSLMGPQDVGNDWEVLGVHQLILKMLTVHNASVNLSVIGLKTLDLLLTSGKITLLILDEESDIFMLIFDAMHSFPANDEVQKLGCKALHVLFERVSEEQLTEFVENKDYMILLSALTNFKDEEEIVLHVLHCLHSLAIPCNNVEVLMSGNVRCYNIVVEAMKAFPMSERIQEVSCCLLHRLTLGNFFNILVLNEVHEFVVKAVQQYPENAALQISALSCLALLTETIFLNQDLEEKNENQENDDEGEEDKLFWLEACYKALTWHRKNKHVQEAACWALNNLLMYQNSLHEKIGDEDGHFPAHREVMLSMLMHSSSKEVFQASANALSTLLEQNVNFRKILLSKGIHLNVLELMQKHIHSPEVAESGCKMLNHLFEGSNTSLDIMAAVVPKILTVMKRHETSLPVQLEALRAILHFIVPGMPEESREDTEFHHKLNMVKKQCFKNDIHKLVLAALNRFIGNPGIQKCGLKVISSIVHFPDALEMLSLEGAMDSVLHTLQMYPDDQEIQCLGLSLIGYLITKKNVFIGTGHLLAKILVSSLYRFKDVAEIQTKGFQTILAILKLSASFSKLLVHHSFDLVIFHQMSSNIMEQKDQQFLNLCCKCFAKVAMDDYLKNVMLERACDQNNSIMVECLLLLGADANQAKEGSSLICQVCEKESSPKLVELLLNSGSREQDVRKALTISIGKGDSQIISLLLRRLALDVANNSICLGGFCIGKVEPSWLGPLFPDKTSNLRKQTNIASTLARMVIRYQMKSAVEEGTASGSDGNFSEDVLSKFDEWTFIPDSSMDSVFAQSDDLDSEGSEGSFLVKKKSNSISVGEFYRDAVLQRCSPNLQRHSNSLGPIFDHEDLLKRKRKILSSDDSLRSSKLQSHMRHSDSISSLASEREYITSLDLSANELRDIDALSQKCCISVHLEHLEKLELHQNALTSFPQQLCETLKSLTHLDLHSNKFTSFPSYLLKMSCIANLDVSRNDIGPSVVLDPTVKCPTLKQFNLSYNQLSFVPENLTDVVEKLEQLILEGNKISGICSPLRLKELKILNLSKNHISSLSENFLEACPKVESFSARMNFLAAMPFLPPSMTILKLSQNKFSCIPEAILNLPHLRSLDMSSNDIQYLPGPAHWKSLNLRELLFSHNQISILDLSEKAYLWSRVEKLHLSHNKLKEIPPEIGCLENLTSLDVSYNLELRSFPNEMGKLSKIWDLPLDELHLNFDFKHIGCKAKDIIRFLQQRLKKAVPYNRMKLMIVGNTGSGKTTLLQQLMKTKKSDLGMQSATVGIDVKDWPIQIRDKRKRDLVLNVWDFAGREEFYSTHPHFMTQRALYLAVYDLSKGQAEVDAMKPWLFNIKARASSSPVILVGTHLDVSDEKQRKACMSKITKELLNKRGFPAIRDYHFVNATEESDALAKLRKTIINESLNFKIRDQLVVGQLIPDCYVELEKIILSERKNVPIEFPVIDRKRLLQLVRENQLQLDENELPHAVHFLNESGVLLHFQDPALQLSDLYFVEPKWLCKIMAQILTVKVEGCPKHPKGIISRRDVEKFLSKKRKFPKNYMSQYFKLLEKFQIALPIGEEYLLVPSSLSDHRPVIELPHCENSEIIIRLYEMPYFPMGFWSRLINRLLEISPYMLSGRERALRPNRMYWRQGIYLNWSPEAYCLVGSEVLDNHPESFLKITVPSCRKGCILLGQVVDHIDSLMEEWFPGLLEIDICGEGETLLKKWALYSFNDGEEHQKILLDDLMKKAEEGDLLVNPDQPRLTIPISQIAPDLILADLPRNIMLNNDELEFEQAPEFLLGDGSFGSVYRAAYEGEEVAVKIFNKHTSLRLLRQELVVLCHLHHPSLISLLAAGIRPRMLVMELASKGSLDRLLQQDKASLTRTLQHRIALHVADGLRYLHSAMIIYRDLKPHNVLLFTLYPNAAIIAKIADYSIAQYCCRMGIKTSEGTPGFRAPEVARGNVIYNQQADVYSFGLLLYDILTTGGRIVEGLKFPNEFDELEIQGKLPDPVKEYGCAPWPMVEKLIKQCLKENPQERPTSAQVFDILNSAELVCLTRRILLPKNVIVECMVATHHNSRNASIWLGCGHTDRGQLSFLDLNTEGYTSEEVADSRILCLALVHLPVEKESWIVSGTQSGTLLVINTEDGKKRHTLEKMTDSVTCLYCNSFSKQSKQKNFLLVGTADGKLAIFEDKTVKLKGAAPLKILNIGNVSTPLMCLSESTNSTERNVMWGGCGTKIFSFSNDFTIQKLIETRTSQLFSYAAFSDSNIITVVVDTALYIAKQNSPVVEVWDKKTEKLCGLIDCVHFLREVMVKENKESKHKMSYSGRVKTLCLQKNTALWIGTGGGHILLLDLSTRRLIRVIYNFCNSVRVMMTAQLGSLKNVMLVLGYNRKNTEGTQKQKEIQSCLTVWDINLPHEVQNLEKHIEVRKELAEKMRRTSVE
# protocol-description: LRRK2 G2019S TR-FRET biochemical kinase assay (LRRKtide substrate)
# applied-conditions: Table A-2; 5 nM LRRK2, 134 μM ATP, 60 minute reaction, 23° C.
pIC50: −log10 of the molar value.
endpoint-label: pIC50

Let me know recorded pIC50 for Cn1cnc(C(C)(C)n2cc(Nc3ncc(C(F)(F)F)c(C4CC4)n3)c(Cl)n2)n1 , thanks. > 7.52

Look up and report measured pIC50 for this entry: Cc1c(Nc2ncc(C(F)(F)F)c(C3CC3)n2)cnn1C1(C)CCNC1=O (stereo not shown) > 7.52

Output pIC50 of Cc1nn(C(CF)CF)cc1Nc1ncc(Cl)c(C2CC2)n1 > 7.52

Consider the molecule Cc1nn(C(C)(C)C#N)cc1Nc1ncc(C(F)(F)F)c(C2=CCCC2)n1 and give its recorded pIC50. 7.22 to 7.52

* * *

# measured-on: LRRK2 G2019S enzyme (Homo sapiens (Human), UniProt Q5S007, G2019S)
# protocol-description: LRRK2 G2019S TR-FRET biochemical kinase assay (LRRKtide substrate)
# applied-conditions: Table A-2; 5 nM LRRK2, 134 μM ATP, 60 minute reaction, 23° C.
# Procedure: LRRK2 G2019S enzyme, Substrate (LRRKtide), ATP, TR-FRET dilution buffer, pLRRKtide antibody, 384-well assay plate, and DMSO. […] To perform the detection of the reaction, EDTA completely mixed in TR-FRET dilution buffer was added to antibody reagent. […] Plates were read on Perkin Elmer Envision 2104 instrument in TR-FRET mode using a 340 nm excitation filter, 520 nm fluorescence emission filter, and 490 or 495 nm terbium emission filter. […]
pIC50: −log10 of the molar value.
endpoint-label: pIC50

Answer with the recorded pIC50 for the compound listed here: CCN1CC(n2ncc(Nc3ncc(C(F)(F)F)c(C4CC4)n3)c2C)CCC1=O (single isomer, unassigned) [Compound A-60] > 7.52

Tell me pIC50 reported for Cc1nn([C@H]2CC3C(C2)[C@H]3c2ncn(C)n2)cc1Nc1ncc(C(F)(F)F)c(C2CC2)n1 (some centres unmarked) > 7.52

Give pIC50 for Cc1nn(C2CCOCC2)cc1Nc1ncc(C(F)(F)F)c(C2CC2)n1 7.22 to 7.52

Specify reported pIC50 for the compound shown: Cn1cnc(C(C)(C)n2cc(Nc3ncc(C(F)(F)F)c(C4CC4)n3)c(CO)n2)n1 < 7.22

Give the reported value of pIC50 for this record: Cc1nn([C@H]2CCn3cnnc32)cc1Nc1ncc(C(F)(F)F)c(C2CC2)n1 (single isomer, unassigned) > 7.52

# return recorded pIC50 for entry Cc1c(Nc2ncc(C(F)(F)F)c(C3CC3)n2)cnn1[C@H]1CCc2cn[nH]c21 > 7.52

Return pIC50 (reported value) for this compound: Cc1nn([C@@H]2CCc3cn[nH]c32)cc1Nc1ncc(C(F)(F)F)c(C2CC2)n1 > 7.52

Recall and state the measured pIC50 for Cc1nn(C2(c3ncn(C)n3)CC2)cc1Nc1ncc(C(F)(F)F)c(C2CC2)n1 . < 7.22

* * *

# measured-on: LRRK2 G2019S enzyme (Homo sapiens (Human), UniProt Q5S007, G2019S)
# protocol-description: LRRK2 G2019S TR-FRET biochemical kinase assay (LRRKtide substrate)
# applied-conditions: Table D-4; 5 nM LRRK2, 134 μM ATP, 60 minute reaction, 23° C.
Assign IC50 to each entry below.

Identify measured IC50 associated with CNc1nc(Nc2cnn([C@H]3C[C@H](CC#N)C3)c2C)ncc1C(F)(F)F [Compound D-29] < 30 nM

Note down IC50 recorded for CNc1nc(Nc2cnn([C@H]3C[C@H](OC(F)F)C3)c2C)ncc1C(F)(F)F [Compound D-25] < 30 nM

Please give measured IC50 of the following entry: CCNc1nc(Nc2cnn([C@H]3C[C@H](N4CC[C@@H](F)C4)C3)c2C)ncc1C(F)(F)F [Compound D-197] < 30 nM

Input CCNc1nc(Nc2cnn([C@H]3C[C@H](n4nccn4)C3)c2C)ncc1Cl [Compound D-154] , output reported IC50. < 30 nM

Please look at this compound and report its IC50: CNc1nc(Nc2cn([C@H]3CCC(n4ccnn4)C3)nc2C)ncc1C(F)(F)F (stereo partly drawn) [Compounds D-143] 30 to 60 nM

Give IC50 for CNc1nc(Nc2cn(C(F)(F)C(N)=O)nc2C)ncc1C(F)(F)F [Compound D-14] < 30 nM

Give IC50 for the following compound: CNc1nc(Nc2cn(CC3(Cn4cncn4)CC3)nc2C)ncc1C(F)(F)F [Compound D-5] > 60 nM

Output measured IC50 for this item: CNc1nc(Nc2cnn([C@H]3C[C@H](n4cccn4)C3)c2C)ncc1Br [Compound D-111] < 30 nM

Check the records and state IC50 for CCNc1nc(Nc2cn(C(F)(F)C(N)=O)nc2C)ncc1C(F)(F)F [Compound D-101] < 30 nM

Give the measured IC50 for CNc1nc(Nc2cnn(C3(CC#N)CC3)c2C)ncc1C(F)(F)F [Compound D-144] < 30 nM

Let me know recorded IC50 for CCNc1nc(Nc2cnn(C3CCc4ncsc43)c2C)ncc1C(F)(F)F [Compound D-97] , thanks. < 30 nM

Quick one: give measured IC50 for CNc1nc(Nc2cn(C3(c4ncn(C)n4)CCC3)nc2C)ncc1C(F)(F)F [Compound D-136] < 30 nM

Item CNc1nc(Nc2cnn([C@H]3C[C@H](c4nncs4)C3)c2C)ncc1C(F)(F)F [Compound D-168] : provide IC50 < 30 nM

Read the entry CCNc1nc(Nc2cn(C(F)(F)C(=O)NC3CC3)nc2C)ncc1C(F)(F)F [Compound D-140] and write its reported IC50. < 30 nM

State its IC50: CNc1nc(Nc2cnn([C@@H]3CCc4c(C)noc43)c2C)ncc1C(F)(F)F [Compounds D-173] > 60 nM

Entry CNc1nc(Nc2cnn([C@H]3CCn4cncc43)c2C)ncc1C(F)(F)F [Compounds D-166] needs its IC50 filled in; supply it. < 30 nM

Please list IC50 recorded for the compound CCNc1nc(Nc2cnn(C3CCCn4ccnc43)c2C)ncc1C(F)(F)F [Compound D-78] > 60 nM

* * *

# measured-on: LRRK2 G2019S enzyme (Homo sapiens (Human), UniProt Q5S007, G2019S)
# protocol-description: LRRK2 G2019S TR-FRET biochemical kinase assay (LRRKtide substrate)
# applied-conditions: Table D-4; 5 nM LRRK2, 134 μM ATP, 60 minute reaction, 23° C.
# Experimental: LRRK2 G2019S enzyme, Substrate (LRRKtide), ATP, TR-FRET dilution buffer, pLRRKtide antibody, 384-well assay plate, and DMSO. […] To perform the detection of the reaction, EDTA completely mixed in TR-FRET dilution buffer was added to antibody reagent. […] Plates were read on Perkin Elmer Envision 2104 instrument in TR-FRET mode using a 340 nm excitation filter, 520 nm fluorescence emission filter, and 490 or 495 nm terbium emission filter. […]
pIC50: −log10 of the molar value.
endpoint-label: pIC50

Using known records, supply pIC50 for COc1nc(Nc2cnn([C@H]3C[C@H](n4nccn4)C3)c2C)ncc1Cl > 7.52

// Input: COc1nc(Nc2cnn([C@H]3C[C@@H](n4nccn4)C3)c2C)ncc1Br . Output its pIC50 only. > 7.52

Tell me measured pIC50 for CNC(=O)C(F)(F)n1cc(Nc2ncc(C(F)(F)F)c(NC)n2)c(C)n1 please. > 7.52

For the compound CNc1nc(Nc2cn(C3CCn4ccnc43)nc2C)ncc1C(F)(F)F [Compound D-137] , report pIC50. > 7.52

Supply pIC50 value. Item: CCNc1nc(Nc2cnn([C@H]3C[C@H](c4cocn4)C3)c2C)ncc1C(F)(F)F > 7.52

Query pIC50 for Cc1c(Nc2ncc(C(F)(F)F)c(NCC(F)F)n2)cnn1[C@H]1C[C@H](n2cccn2)C1 > 7.52

Input CNc1nc(Nc2cnn([C@H]3C[C@H](n4nccn4)C3)c2C)ncc1C(F)(F)F , output reported pIC50. > 7.52

Query pIC50 for CNc1nc(Nc2cnn(C(C)COC(F)F)c2C)ncc1C(F)(F)F [Compound D-48] > 7.52

Give me measured pIC50, please, for this compound: CNc1nc(Nc2cn(CC3(CC#N)CC3)nc2C)ncc1C(F)(F)F < 7.22

In one line, give reported pIC50 of the entry CNc1nc(Nc2cnn(CC3(CC#N)CC3)c2C)ncc1C(F)(F)F [Compound D-157a] . > 7.52

Report pIC50, nothing else, for this compound: CNc1nc(Nc2cnn(C3CCn4ccnc43)c2C)ncc1C(F)(F)F (centres unmarked) > 7.52

Supply measured pIC50 of CCNc1nc(Nc2cn(C3CCn4nccc43)nc2C)ncc1C(F)(F)F (centres unmarked) in your reply. > 7.52

Supply measured pIC50 of CNc1nc(Nc2cn(C3CCCc4c3cnn4C)nc2C)ncc1C(F)(F)F (centres unmarked) in your reply. < 7.22

Respond only with pIC50 recorded for CNc1nc(Nc2cn(C3(c4ncnn4C)CCC3)nc2C)ncc1C(F)(F)F < 7.22

Determine its reported pIC50: CNc1nc(Nc2cnn(CC3(CC#N)CC3)c2Cl)ncc1C(F)(F)F > 7.52

Annotate the compound CCNc1nc(Nc2cn(C3CCn4ccnc43)nc2C)ncc1C(F)(F)F (single isomer, unassigned) [Compound D-24] with its measured pIC50. > 7.52

Name the recorded pIC50 of the item CNc1nc(Nc2cnn(CC(C)OC(F)F)c2C)ncc1C(F)(F)F (centres unmarked) in your answer. > 7.52
